Provide the reported No. of lesions assessed: Responded of each item.
Test system: lesions of papillomatous digital dermatitis (PDD)
Test: Effect of various treatments on lesions of papillomatous digital dermatitis in Holstein cows
Format: in vivo
Settings: complete therapeutic response; assessed at post-treatment days 7, 14 and 21; herds 5 to 7

Which value of No. of lesions assessed: Responded has been reported for CN(C)[C@@H]1C(O)=C(C(N)=O)C(=O)[C@@]2(O)C(O)=C3C(=O)c4c(O)cccc4[C@@](C)(O)[C@H]3[C@H](O)[C@@H]12 in the records?
4

Which value of No. of lesions assessed: Responded has been reported for Cl [Hydrochloric acid (35%), hydrochloric acid] in the records?
3

Which value of No. of lesions assessed: Responded has been reported for C=O in the records?
8

Which value of No. of lesions assessed: Responded has been reported for CO/N=C(\C(=O)N[C@@H]1C(=O)N2C(C(=O)O)=C(CSC(=O)c3ccco3)CS[C@H]12)c1csc(N)n1 [Ceftiofur IM, ceftiofur sodium] in the records?
41
